Target Desc: PSEN2-APH1B γ-secretase complex (Homo sapiens, UniProt P49810+Q8WW43+Q92542+Q9NZ42)
Assay Info: Aβ40 secretion by MEF cell line expressing only PSEN2-APH1B γ-secretase (APP-C99-GFP reporter)
Conditions: 8 h, Beerse site unless otherwise indicated, read-out: IC50, Aβ40 peptides
Assay Endpoint: IC50

Reported IC50 for O=S(=O)(NC1CCC(c2cc(F)ccc2F)(S(=O)(=O)c2ccc(Cl)cc2)CC1)C(F)(F)F (stereo not shown) [MRK-560] was > 130 nM

* * *

Target Desc: PSEN1-APH1A γ-secretase complex (Homo sapiens)
Construct: expressed in transfected cells; host or cells: Psen1/2 double KO/Aph1ABC triple KO MEFs, pMSCV retroviral PSEN-IRES-APH1
Assay Info: Aβ40 secretion by MEF cell line expressing only PSEN1-APH1A γ-secretase (APP-C99-GFP reporter)
Type: cell-based
Conditions: only the 95% CI is given, read-out: 95% CI of IC50
Assay Endpoint: IC50

Value (IC50, PSEN1-APH1A γ-secretase complex (Homo sapiens)) for record "CC(C)C[C@H](NC(=O)[C@H](Cc1ccccc1)C[C@@H](O)[C@H](Cc1ccccc1)NC(=O)OC(C)(C)C)C(=O)N[C@@H](Cc1ccccc1)C(N)=O" = 1210 to 2370 nM

Data provenance: paper PMC10318456
